Test system PAK4 (Homo sapiens), IC50 listed for each of the molecules.

// below: answered molecules
molecule	system under test	assay endpoint	result
CCn1c(=O)c(-c2ccc(-c3ccnc(C(=O)NC)c3)cc2Cl)cc2cnc(Nc3ccc(C4CCNCC4)cc3)nc21	PAK4 (Homo sapiens)	IC50	≥ 5 µM
CCn1c(=O)c(-c2ccc(-c3cnn(C)c3)cc2Cl)cc2cnc(Nc3ccc(N4CCN(C)CC4)cc3)nc21	PAK4 (Homo sapiens)	IC50	≥ 5 µM
CCn1c(=O)c(-c2ccc(-c3cncs3)cc2Cl)cc2cnc(Nc3ccc(N4CCNCC4)c(F)c3)nc21	PAK4 (Homo sapiens)	IC50	0.5 to 5 µM
Cc1ncc(-c2ccc(-c3cc4cnc(Nc5ccc(C6CCN(C)CC6)cc5)nc4n(C)c3=O)c(Cl)c2)s1	PAK4 (Homo sapiens)	IC50	≥ 5 µM
CCn1c(=O)c(-c2ccc(C3CC3)cc2Cl)cc2cnc(Nc3ccc(N4CCN(C)CC4)cc3)nc21	PAK4 (Homo sapiens)	IC50	≥ 5 µM

Bench note: what IC50 did `CN(C)CCc1ccc(Nc2ncc3cc(-c4ccc(-c5cccnc5N(C)C)cc4Cl)c(=O)n(C)c3n2)cc1` show?
≥ 5 µM

GET /values?readout=IC50&item= `CCn1c(=O)c(-c2ccc(-c3nccs3)cc2Cl)cc2cnc(Nc3ccc(N4CCN(C)CC4)cc3)nc21`
0.5 to 5 µM

// query IC50 value for entry `CCN1CCC(c2ccc(Nc3ncc4cc(-c5ccc(-c6cccnc6)cc5Cl)c(=O)n(CC)c4n3)cc2F)CC1`
0.5 to 5 µM
